The measurements presented in this section are drawn from patent US20230357249A1.

# ASSAYED_SYSTEM: AR protein (Homo sapiens)
# Construct: endogenous in cells; host or cells: VCaP
# Sequence (P10275 1-920): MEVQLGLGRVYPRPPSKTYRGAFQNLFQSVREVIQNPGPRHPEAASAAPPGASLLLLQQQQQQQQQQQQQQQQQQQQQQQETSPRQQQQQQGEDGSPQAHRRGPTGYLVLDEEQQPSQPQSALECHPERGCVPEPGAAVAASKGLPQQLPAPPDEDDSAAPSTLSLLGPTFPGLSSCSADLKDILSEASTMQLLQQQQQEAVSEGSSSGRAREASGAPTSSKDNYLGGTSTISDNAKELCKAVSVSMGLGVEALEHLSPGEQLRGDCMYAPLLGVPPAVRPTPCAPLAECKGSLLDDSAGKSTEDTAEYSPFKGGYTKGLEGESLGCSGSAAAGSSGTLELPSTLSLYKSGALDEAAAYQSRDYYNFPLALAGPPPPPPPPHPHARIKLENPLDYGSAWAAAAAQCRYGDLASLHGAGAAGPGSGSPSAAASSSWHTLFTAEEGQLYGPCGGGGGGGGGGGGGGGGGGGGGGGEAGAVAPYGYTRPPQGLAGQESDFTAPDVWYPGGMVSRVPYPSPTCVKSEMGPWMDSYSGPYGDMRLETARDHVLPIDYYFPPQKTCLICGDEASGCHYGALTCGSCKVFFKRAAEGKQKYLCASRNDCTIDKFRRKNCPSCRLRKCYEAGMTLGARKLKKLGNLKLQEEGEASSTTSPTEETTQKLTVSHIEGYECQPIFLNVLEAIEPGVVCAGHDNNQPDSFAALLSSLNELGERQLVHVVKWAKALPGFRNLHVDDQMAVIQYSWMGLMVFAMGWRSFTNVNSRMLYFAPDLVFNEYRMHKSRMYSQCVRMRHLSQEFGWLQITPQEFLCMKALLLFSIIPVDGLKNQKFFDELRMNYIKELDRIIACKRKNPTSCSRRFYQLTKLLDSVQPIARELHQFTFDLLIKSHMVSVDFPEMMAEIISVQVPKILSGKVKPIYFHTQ
# TEST_PROTOCOL: AR protein degradation in VCaP cells, Western blotting
# Format: cell-based
# ASSAY_SETUP: 100 nM, 24 hr treatment
MEASURED_PROPERTY: percent AR protein degradation at 0.1 µM

>  <COMPOUND>
C[C@H]1C[C@@H](NC(=O)c2ccc(N3CCC(CN4Cc5cc6c(cc5C4)C(=O)N(C4CCC(=O)NC4=O)C6=O)CC3)cc2)CC[C@@H]1Oc1ccc(C#N)c(Cl)c1 (stereo partly drawn)

>  <percent AR protein degradation at 0.1 µM>
> 90%

$$$$

[in] Bench note: what percent AR protein degradation at 0.1 µM did CN(c1ccc(C#N)c(Cl)c1)[C@H]1CC[C@H](NC(=O)c2ccc(N3CCC(CN4Cc5cc6c(cc5C4)C(=O)N(C4CCC(=O)NC4=O)C6=O)CC3)nc2)CC1 (stereo partly drawn) show?
[out] > 90%

[in] Bench note: what percent AR protein degradation at 0.1 µM did CN(c1ccc(C#N)c(Cl)c1)[C@H]1CC[C@H](NC(=O)c2ccc(N3CCN(CC(=O)N4Cc5cc6c(cc5C4)C(=O)N(C4CCC(=O)NC4=O)C6)CC3)cc2)CC1 (stereo partly drawn) show?
[out] > 90%

[in] Bench note: what percent AR protein degradation at 0.1 µM did CN(c1ccc(C#N)c(Cl)c1)[C@H]1CC[C@H](NC(=O)c2ccc([C@H]3CC[C@H](CN4Cc5cc6c(cc5C4)C(=O)N(C4CCC(=O)CC4=O)C6=O)CC3)cc2)CC1 (stereo partly drawn) show?
[out] > 90%

[in] Bench note: what percent AR protein degradation at 0.1 µM did CN(c1ccc(C#N)c(Cl)c1)[C@H]1CC[C@H](NC(=O)c2ccc(O[C@H]3CC[C@H](N4Cc5cc6c(cc5C4)C(=O)N(C4CCC(=O)NC4=O)C6=O)CC3)cc2)CC1 (stereo partly drawn) show?
[out] > 90%

[in] Bench note: what percent AR protein degradation at 0.1 µM did C[C@H]1CCN(c2ccc(C(=O)N3CCC(CN4Cc5cc6c(cc5C4)C(=O)N(C4CCC(=O)NC4=O)C6=O)CC3)cc2)CCN1c1ccc(C#N)c(Cl)c1 (stereo partly drawn) show?
[out] 50 to 90%

[in] Bench note: what percent AR protein degradation at 0.1 µM did N#Cc1ccc(O[C@H]2CC[C@H](N3Cc4cc(C(=O)N5CCC(CN6Cc7cc8c(cc7C6)C(=O)N(C6CCC(=O)NC6=O)C8=O)CC5)ccc4C3=O)CC2)cc1Cl (stereo partly drawn) show?
[out] > 90%

[in] Bench note: what percent AR protein degradation at 0.1 µM did N#Cc1ccc(OC2CCN(C(=O)Oc3ccc(C(=O)N4CCC(CN5Cc6cc7c(cc6C5)C(=O)N(C5CCC(=O)NC5=O)C7=O)CC4)cc3)CC2)cc1Cl (stereo not drawn) show?
[out] 10 to 50%

[in] Bench note: what percent AR protein degradation at 0.1 µM did C[C@H]1C[C@H](NC(=O)c2ccc(N3CCC(N4Cc5cc6c(cc5C4)C(=O)N(C4CCC(=O)NC4=O)C6=O)CC3)cc2)CC[C@H]1Oc1ccc(C#N)c(Cl)c1 (stereo partly drawn) show?
[out] > 90%

----------
# ASSAYED_SYSTEM: AR protein (Homo sapiens)
# Construct: endogenous in cells; host or cells: VCaP
# Sequence (P10275 1-920): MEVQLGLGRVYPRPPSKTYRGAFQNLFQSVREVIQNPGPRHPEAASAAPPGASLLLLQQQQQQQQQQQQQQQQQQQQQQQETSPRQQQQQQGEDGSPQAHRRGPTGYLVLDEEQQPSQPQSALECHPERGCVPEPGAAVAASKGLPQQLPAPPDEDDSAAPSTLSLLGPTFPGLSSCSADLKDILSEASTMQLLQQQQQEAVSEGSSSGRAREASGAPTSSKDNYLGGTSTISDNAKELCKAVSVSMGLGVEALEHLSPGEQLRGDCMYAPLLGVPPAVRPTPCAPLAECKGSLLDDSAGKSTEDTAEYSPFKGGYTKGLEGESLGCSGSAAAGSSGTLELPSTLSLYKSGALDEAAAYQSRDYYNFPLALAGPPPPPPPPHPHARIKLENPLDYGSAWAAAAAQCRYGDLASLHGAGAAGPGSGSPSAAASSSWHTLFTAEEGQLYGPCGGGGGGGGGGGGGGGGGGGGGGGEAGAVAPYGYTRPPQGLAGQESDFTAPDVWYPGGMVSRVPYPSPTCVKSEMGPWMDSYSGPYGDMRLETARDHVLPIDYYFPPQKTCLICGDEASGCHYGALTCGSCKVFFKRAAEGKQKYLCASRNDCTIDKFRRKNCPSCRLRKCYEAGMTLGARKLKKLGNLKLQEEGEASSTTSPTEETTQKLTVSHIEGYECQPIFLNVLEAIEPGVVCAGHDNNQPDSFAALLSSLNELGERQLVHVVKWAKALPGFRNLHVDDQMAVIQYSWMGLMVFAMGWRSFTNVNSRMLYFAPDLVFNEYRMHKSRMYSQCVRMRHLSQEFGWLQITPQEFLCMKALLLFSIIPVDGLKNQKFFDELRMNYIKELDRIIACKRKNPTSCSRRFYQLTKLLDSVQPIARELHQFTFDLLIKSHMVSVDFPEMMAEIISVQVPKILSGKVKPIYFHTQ
# TEST_PROTOCOL: AR protein degradation in VCaP cells, Western blotting
# Type: cell-based
# ASSAY_SETUP: 10 nM, 24 hr treatment
MEASURED_PROPERTY: percent AR protein degradation at 0.01 µM

>  <COMPOUND>
N#Cc1ccc(O[C@H]2CC[C@H](NC(=O)c3ccc4c(c3)CCN(CC(=O)N3CCc5cc6c(cc5C3)C(=O)N(C3CCC(=O)NC3=O)C6=O)C4)CC2)cc1Cl (some centres unmarked)

>  <ASSAYED_SYSTEM>
AR protein (Homo sapiens)

>  <RECORDED_VALUE>
50 to 90%

$$$$
>  <COMPOUND>
CN(c1ccc(C#N)c(Cl)c1)[C@H]1CC[C@H](NC(=O)c2ccc(N3CCC(CN4Cc5cc6c(cc5C4)C(=O)N(C4CCC(=O)NC4=O)C6=O)CC3)nc2)CC1 (some centres unmarked)

>  <ASSAYED_SYSTEM>
AR protein (Homo sapiens)

>  <RECORDED_VALUE>
> 90%

$$$$
>  <COMPOUND>
CN(c1ccc(C#N)c(Cl)c1)[C@H]1CC[C@H](NC(=O)c2ccc([C@H]3CC[C@H](CN4Cc5cc6c(cc5C4)C(=O)N(C4CCC(=O)CC4=O)C6=O)CC3)cc2)CC1 (some centres unmarked)

>  <ASSAYED_SYSTEM>
AR protein (Homo sapiens)

>  <RECORDED_VALUE>
> 90%

$$$$
>  <COMPOUND>
CN(c1ccc(C#N)c(Cl)c1)[C@H]1CC[C@H](NC(=O)c2ccc(CN3CCC(C(=O)N4Cc5cc6c(cc5C4)C(=O)N(C4CCC(=O)NC4=O)C6)CC3)cc2)CC1 (some centres unmarked)

>  <ASSAYED_SYSTEM>
AR protein (Homo sapiens)

>  <RECORDED_VALUE>
> 90%

$$$$
>  <COMPOUND>
CN(c1ccc(C#N)c(Cl)c1)[C@H]1CC[C@H](NC(=O)c2ccc(O[C@H]3CC[C@H](N4Cc5cc6c(cc5C4)C(=O)N(C4CCC(=O)NC4=O)C6=O)CC3)cc2)CC1 (some centres unmarked)

>  <ASSAYED_SYSTEM>
AR protein (Homo sapiens)

>  <RECORDED_VALUE>
> 90%

$$$$

[in] Bench note: what percent AR protein degradation at 0.01 µM did C[C@H]1C[C@H](NC(=O)c2ccc(N3CCC(CN4Cc5cc6c(cc5C4)C(=O)N(C4CCC(=O)NC4=O)C6=O)CC3)cc2)CC[C@H]1Oc1ccc(C#N)c(Cl)c1 (some centres unmarked) show?
[out] > 90%

[in] Bench note: what percent AR protein degradation at 0.01 µM did N#Cc1ccc(O[C@H]2CC[C@H](NC(=O)c3ccc(N4CCC(CN5Cc6cc7c(cc6C5)C(=O)N(C5CCC(=O)NC5=O)C7=O)CC4)cc3)CC2)cc1Cl (some centres unmarked) show?
[out] > 90%

[in] Bench note: what percent AR protein degradation at 0.01 µM did CN(c1ccc(C#N)c(Cl)c1)[C@H]1CC[C@H](NC(=O)c2ccc(N3CCN(CC(=O)N4Cc5cc6c(cc5C4)C(=O)N(C4CCC(=O)NC4=O)C6)CC3)cc2)CC1 (some centres unmarked) show?
[out] > 90%

[in] Bench note: what percent AR protein degradation at 0.01 µM did N#Cc1ccc(O[C@H]2CC[C@H](NC(=O)c3ccc4c(c3)CCN(CC(=O)N3CCc5cc6c(cc5C3)C(=O)N(C3CCC(=O)NC3=O)C6=O)CC4)CC2)cc1Cl (some centres unmarked) show?
[out] 50 to 90%

[in] Bench note: what percent AR protein degradation at 0.01 µM did C[C@H]1C[C@H](NC(=O)c2ccc(N3CCC(N4Cc5cc6c(cc5C4)C(=O)N(C4CCC(=O)NC4=O)C6=O)CC3)cc2)CC[C@H]1Oc1ccc(C#N)c(Cl)c1 (some centres unmarked) show?
[out] > 90%

[in] Bench note: what percent AR protein degradation at 0.01 µM did N#Cc1ccc(O[C@H]2CC[C@H](NC(=O)c3ccc(N4CC(CN5Cc6cc7c(cc6C5)C(=O)N(C5CCC(=O)NC5=O)C7=O)C4)cc3)CC2)cc1Cl (some centres unmarked) show?
[out] 50 to 90%
